Overview of reported log10 of TGI across a group of compounds:
# System: SK-MEL-2 melanoma
# METHOD_DESCRIPTION: NCI tumour cell line growth inhibition, 48 h
In our notation, the value equals log10 of TGI in µM.

Solved entries (count: 5):
1) CCOC(=O)c1ccc2c(c1)[n+](=O)c(C(C)=O)c(C(F)(F)F)n2[O-]; 0.72
2) COc1nc2c(c(=O)n1C)N=C(c1ccc(Cl)cc1)CC(c1ccccc1)N2 (configuration not stated); 1.63
3) Cc1ccc(-c2nc([P+](c3ccccc3)(c3ccccc3)c3ccccc3)c(Nc3ccccc3)o2)cc1; 0.38
4) Cc1cnc(Nc2ccc(N3CCN(C)CC3)cc2)nc1Nc1ccc(Cl)c(NS(=O)(=O)C(C)(C)C)c1; 0.58
5) COc1ccc(C2C3CCCC(C3=O)C(c3ccc(OC)cc3)N2N=O)cc1 (configuration not stated); 1.65

Please look at the following compound next.
Qu. # query: log10 of TGI of entry NC(=S)N=Nc1c(O)c2ccccc2c2ccccc12
Ans. 1.53

Measured values drawn from PubChem BioAssay (NCI) for this set.
